Tested on: HS 578T breast
Assay: NCI-60 one-dose screen, 48 h (100 = growth as untreated, 0 = no growth, -100 = all killed)
Settings: 10 µM unless noted
Protocol: Growth inhibition of the HS 578T human tumor cell line is measured as a screen for anti-cancer activity. Cells are grown in 96 well plates and exposed to the test compound for 48 hours. Compounds are tested at a single concentration, which is 10^-5 M for most compounds. The reported endpoint is percent growth (GI% or GIPRCNT), where numbers from 0 - 100% represent growth inhibition, and numbers from -100% - 0 represent cell death. For example, a value of 40 represents 60% growth inhibition. […]
The panel holds about 83,000 compounds, 20% with a hit somewhere; the sample as a whole holds those more often.
MEASURE_NAME: growth (%)

{"COMPOUND": "COC(=O)C1CCCN1C(=O)[C@@H]1CCCN1C(=O)[C@H](Cc1c[nH]c2ccccc12)NC(=S)Nc1cc(C(F)(F)F)cc(C(F)(F)F)c1 (stereo not given in full)", "UOM": "%", "REPORTED_MEASUREMENT": 65.4}
{"COMPOUND": "Cc1ccc(C(=O)C2=Cc3cc4ccccc4n3Cc3cnnn32)cc1", "UOM": "%", "REPORTED_MEASUREMENT": 94}
{"COMPOUND": "COc1ccc(/C=C2\\N=C(c3ccccc3)N(C(=O)c3ccccc3O)NC2=O)cc1", "UOM": "%", "REPORTED_MEASUREMENT": 93.8}
{"COMPOUND": "COc1ccc(-c2ccc(-c3ccc(C(=N)N)s3)s2)cc1Cl", "UOM": "%", "REPORTED_MEASUREMENT": 87}
{"COMPOUND": "COc1ccc(-c2nc(-c3nc4cc(C)c(C)cc4[nH]3)cc3c2[nH]c2ccccc23)cc1", "UOM": "%", "REPORTED_MEASUREMENT": 56.9}
{"COMPOUND": "COc1ccc2c(c1)C(c1cc(OC)c3c(c1)OCO3)C1=C(COC1=O)N2 (stereo not given)", "UOM": "%", "REPORTED_MEASUREMENT": 21}
{"COMPOUND": "COc1ccc(S(=O)(=O)NCCCNc2nccc(-n3ccc4cccnc43)n2)cc1", "UOM": "%", "REPORTED_MEASUREMENT": 92.3}
{"COMPOUND": "COc1ccc(-c2c(N)n[nH]c2-c2cc(OC)c3c(c2)OCCO3)cc1", "UOM": "%", "REPORTED_MEASUREMENT": 86.2}
{"COMPOUND": "CC(C)(C)NCCC(O)c1cc2c(Cl)cc(Cl)cc2c2cc(C(F)(F)F)ccc12 (stereo not given)", "UOM": "%", "REPORTED_MEASUREMENT": -56.9}
{"COMPOUND": "C=C1CCC2C(C)(CO)C(O)CCC2(C)C1C/C=C1/C(=O)OCC1O/C=C/c1ccccc1 (stereo not given)", "UOM": "%", "REPORTED_MEASUREMENT": 96.3}
{"COMPOUND": "Clc1ccc2c(NC3CCC(NC4CCCCC4)CC3)ccnc2c1 (stereo not given)", "UOM": "%", "REPORTED_MEASUREMENT": 67.5}
{"COMPOUND": "O=[N+]([O-])c1ccc(-c2cn(-c3ccccc3)c(-c3ccccc3)n2)cc1", "UOM": "%", "REPORTED_MEASUREMENT": 97.5}
{"COMPOUND": "COC(=O)c1nc(-c2ccccc2)oc1S(=O)(=O)N1CCN(c2cccc(Cl)c2)CC1", "UOM": "%", "REPORTED_MEASUREMENT": 85.7}
{"COMPOUND": "O=C(Nc1cccc(-n2cc(-c3ccncc3)c(-c3ccc(Cl)c(O)c3)n2)c1)Nc1cc(C(F)(F)F)cc(C(F)(F)F)c1", "UOM": "%", "REPORTED_MEASUREMENT": -26}
{"COMPOUND": "Cc1c(C(=O)/C=C/c2csc3ccccc23)[n+](=O)c2ccccc2n1[O-]", "UOM": "%", "REPORTED_MEASUREMENT": 93.9}
{"COMPOUND": "CCn1c2ccccc2c2cc(NC(=O)Nc3ccc([N+](=O)[O-])cc3C)ccc21", "UOM": "%", "REPORTED_MEASUREMENT": 52.7}
{"COMPOUND": "COc1cc2c(cc1OCCCCCn1c3ccccc3c3ccccc31)N=C[C@@H]1CCCN1C2=O", "UOM": "%", "REPORTED_MEASUREMENT": -63.4}
{"COMPOUND": "COc1ccc2cc(-c3ccc(-c4ccc(C(=N)N)cc4)s3)ccc2c1", "UOM": "%", "REPORTED_MEASUREMENT": 105}
{"COMPOUND": "O=C1NC(=C(Cl)Cl)/C(=N/S(=O)(=O)N2CCC(C3(C(F)(F)F)N=N3)CC2)N1", "UOM": "%", "REPORTED_MEASUREMENT": 95.8}
{"COMPOUND": "CCCCOc1ccc(/C=C2/SC(N3CCOCC3)=NC2=O)cc1OCC", "UOM": "%", "REPORTED_MEASUREMENT": 104}
